# measurement target: equine FcRn (large alpha subunit p51) in complex with equine beta-2-microglobulin (equine) (UniProt F6XZ61)
# assay summary: SPR (Biacore), pH 6
Attribute: Kd
Express the result in nM but write the number alone.

>>> recorded_value("equine IgG7 A426T mutant (antibody, part only; not given: Variable domains, not shown: another chain or arm of the molecule) constant: ASTTAPKVFPLASHSAATSGSTVALGCLVSSYFPEPVTVSWNSGALTSGVHTFPSVLQSSGLYSLSSMVTVPASSLKSQTYICNVAHPASSTKVDKKIVIKECGGCPTCPECLSVGPSVFIFPPKPKDVLMISRTPTVTCVVVDVGHDFPDVQFNWYVDGVETHTATTEPKQEQNNSTYRVVSILAIQHKDWLSGKEFKCKVNNQALPAPVQKTISKPTGQPREPQVYVLAPHRDELSKNKVSVTCLVKDFYPTDIDIEWKSNGQPEPETKYSTTPAQLDSDGSYFLYSKLTVETNRWQQGTTFTCTVMHEALHNHYTEKSVSKSPGK")
26.5
>>> recorded_value("equine IgG7 K311W mutant (antibody, part only; not given: variable domains, not shown: another chain or arm of the molecule) constant: ASTTAPKVFPLASHSAATSGSTVALGCLVSSYFPEPVTVSWNSGALTSGVHTFPSVLQSSGLYSLSSMVTVPASSLKSQTYICNVAHPASSTKVDKKIVIKECGGCPTCPECLSVGPSVFIFPPKPKDVLMISRTPTVTCVVVDVGHDFPDVQFNWYVDGVETHTATTEPKQEQNNSTYRVVSILAIQHWDWLSGKEFKCKVNNQALPAPVQKTISKPTGQPREPQVYVLAPHRDELSKNKVSVTCLVKDFYPTDIDIEWKSNGQPEPETKYSTTPAQLDSDGSYFLYSKLTVETNRWQQGTTFTCAVMHEALHNHYTEKSVSKSPGK")
22.1
>>> recorded_value("equine IgG7 D312H mutant (antibody, part only; not given: variable domains, not shown: another chain or arm of the molecule) constant: ASTTAPKVFPLASHSAATSGSTVALGCLVSSYFPEPVTVSWNSGALTSGVHTFPSVLQSSGLYSLSSMVTVPASSLKSQTYICNVAHPASSTKVDKKIVIKECGGCPTCPECLSVGPSVFIFPPKPKDVLMISRTPTVTCVVVDVGHDFPDVQFNWYVDGVETHTATTEPKQEQNNSTYRVVSILAIQHKHWLSGKEFKCKVNNQALPAPVQKTISKPTGQPREPQVYVLAPHRDELSKNKVSVTCLVKDFYPTDIDIEWKSNGQPEPETKYSTTPAQLDSDGSYFLYSKLTVETNRWQQGTTFTCAVMHEALHNHYTEKSVSKSPGK")
10.4

Task: Returns the measured Kd for the input binder. Input: equine IgG7 N434W mutant (antibody, part only; not given: variable domains, not shown: another chain or arm of the molecule) constant: ASTTAPKVFPLASHSAATSGSTVALGCLVSSYFPEPVTVSWNSGALTSGVHTFPSVLQSSGLYSLSSMVTVPASSLKSQTYICNVAHPASSTKVDKKIVIKECGGCPTCPECLSVGPSVFIFPPKPKDVLMISRTPTVTCVVVDVGHDFPDVQFNWYVDGVETHTATTEPKQEQNNSTYRVVSILAIQHKDWLSGKEFKCKVNNQALPAPVQKTISKPTGQPREPQVYVLAPHRDELSKNKVSVTCLVKDFYPTDIDIEWKSNGQPEPETKYSTTPAQLDSDGSYFLYSKLTVETNRWQQGTTFTCAVMHEALHWHYTEKSVSKSPGK
Result: 1.3
